tested.system: mu opiate receptor (MOR) (Rattus norvegicus, UniProt P33535)
Construct: from tissue; host or cells: rat striatal membrane preparation
Sequence (P33535 whole entry): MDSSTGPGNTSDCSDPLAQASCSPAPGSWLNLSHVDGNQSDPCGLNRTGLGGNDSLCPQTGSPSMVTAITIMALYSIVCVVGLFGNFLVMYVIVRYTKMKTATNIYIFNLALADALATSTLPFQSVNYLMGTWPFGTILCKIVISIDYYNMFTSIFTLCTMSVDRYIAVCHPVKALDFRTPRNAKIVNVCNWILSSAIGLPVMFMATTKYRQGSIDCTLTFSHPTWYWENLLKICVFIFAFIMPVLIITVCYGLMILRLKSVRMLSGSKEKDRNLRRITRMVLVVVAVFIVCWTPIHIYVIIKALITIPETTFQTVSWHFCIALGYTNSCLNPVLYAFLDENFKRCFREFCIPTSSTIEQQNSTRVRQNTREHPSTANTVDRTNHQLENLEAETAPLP
assay.details: MOR agonist activity using [35S]GTPγS binding assay in striatal membranes
Format: biochemical
condition.info: 1 μM compound, striatal membranes
parameter.measured: MOR agonist activity, [35S]GTPγS binding to Gαo, FLNA-binding compound as agonist 1 μM (%)
Give just the number in %; leave the unit off.

Previously resolved entries follow.
COc1ccc(S(=O)(=O)N2CCC3(OCCN3S(=O)(=O)c3ccc(OC)cc3)C3CCCCC32)cc1 (stereo not shown) [Compound C0144M]; 295.9
CC(=O)c1ccc(C(=O)N2CCC3(CC2)OCCN3C(=O)c2ccc(C(C)=O)cc2)cc1; 127.0

Consider `COc1ccc(NC(=O)N2CCC3(CC2)OCCN3S(=O)(=O)c2ccc(OC)cc2)cc1` . Its measured MOR agonist activity, [35S]GTPγS binding to Gαo, FLNA-binding compound as agonist 1 μM is 244.4

Consider `O=S(=O)(c1ccc(Br)cc1Br)N1CCC2(CC1)OCCN2S(=O)(=O)c1ccc(Br)cc1Br` . Its measured MOR agonist activity, [35S]GTPγS binding to Gαo, FLNA-binding compound as agonist 1 μM is 210.8
